Source of measurements: patent US20090124555A1

target: P2X7 receptor (Rattus norvegicus, UniProt Q64663); construct: Alveolar macrophages (AM) were recovered from normal rats by bronchoalveolar lavage; endogenous in cells; host or cells: primary alveolar macrophages from male Wistar rats (bronchoalveolar lavage); experiment: ATP-induced extracellular release of IL-1.beta and IL-1.alpha from macrophages in vitro (ELISA); assay type: cell-based; settings: LPS-primed rat alveolar macrophages, ATP 5 mM; FIG. 3B; read-out: half-maximal response, inhibition of ATP-induced IL-1.beta release
Sequence (Q64663 whole entry): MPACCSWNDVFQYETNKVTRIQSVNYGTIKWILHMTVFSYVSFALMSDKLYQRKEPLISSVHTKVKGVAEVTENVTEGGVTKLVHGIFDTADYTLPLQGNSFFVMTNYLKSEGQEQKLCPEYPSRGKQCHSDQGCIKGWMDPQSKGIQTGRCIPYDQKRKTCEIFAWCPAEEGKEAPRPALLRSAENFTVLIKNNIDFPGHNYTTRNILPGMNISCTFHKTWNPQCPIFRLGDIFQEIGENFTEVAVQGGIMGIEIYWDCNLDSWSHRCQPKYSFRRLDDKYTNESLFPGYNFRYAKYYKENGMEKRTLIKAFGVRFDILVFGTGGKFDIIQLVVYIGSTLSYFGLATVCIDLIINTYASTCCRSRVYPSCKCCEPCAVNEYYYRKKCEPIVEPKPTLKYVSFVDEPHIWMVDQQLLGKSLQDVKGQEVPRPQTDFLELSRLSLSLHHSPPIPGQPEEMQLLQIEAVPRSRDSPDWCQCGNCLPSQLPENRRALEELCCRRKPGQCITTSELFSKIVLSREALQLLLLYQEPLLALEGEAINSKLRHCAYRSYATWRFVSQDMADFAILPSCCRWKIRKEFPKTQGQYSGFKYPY
pIC50: −log10 of the molar value.
parameter: pIC50

> print(dat)
                           structure.string  parameter  observed.value
1  N=C(N)NCCC[C@H](C(N)=O)n1c(Cc2ccc(O)cc2)nc2cc(C(=O)O)ccc21      pIC50          ~10.00
